These entries and their values trace back to the supplement of paper PMC4466140.

Biological target: SpNbp2
Assay: SPOT peptide array binding signal intensity (averaged, normalized) (arbitrary units (background-subtracted, floor 0; scale differs between SH3 domains)); higher = stronger binding of the SH3 domain to the peptide
In this section, each of the binders is paired with its reported SPOT peptide array binding signal intensity.
Reply: number alone, nothing else.

Sample answers from the record:
# binder, valueReported
records = [
    ("MTKTPETSPPKRPMG", 5.5),
    ("TPRLSLPRLPNKHHW", 61),
    ("NNQRRKPLLLNIGDH", 133),
]

Please fill in: SPOT peptide array binding signal intensity reported for `IHTRRPSSTSQYLIR` = 96.5

Please fill in: SPOT peptide array binding signal intensity reported for `RPVPRRPSQPLNTLS` = 81.5

Please fill in: SPOT peptide array binding signal intensity reported for `QFDLKMPSKPIHNLK` = 74.5
